From: ChEMBL document CHEMBL3301361

test: in vitro; conditions: hepatocytes
Metric: hepatocyte CLint

Molecule	Metric	Observed Result
O=c1cc(-c2ccc(Br)cc2)oc2ccccc12	hepatocyte CLint	< 3 µL/min/1e6 cells
O=C(Nc1c(Cl)cncc1Cl)c1ccc(OC(F)F)c(OCC2CC2)c1 [ROFLUMILAST]	hepatocyte CLint	> 150 µL/min/1e6 cells
CC(=O)c1cc2ccc(O)cc2oc1=O	hepatocyte CLint	> 150 µL/min/1e6 cells
CO[C@H]1C[C@@H]2CC[C@@H](C)[C@@](O)(O2)C(=O)C(=O)N2CCCC[C@H]2C(=O)O[C@H]([C@H](C)C[C@@H]2CC[C@@H](O)[C@H](OC)C2)CC(=O)[C@H](C)/C=C(\C)[C@@H](O)[C@@H](OC)C(=O)[C@H](C)C[C@H](C)/C=C/C=C/C=C/1C [SIROLIMUS]	hepatocyte CLint	> 150 µL/min/1e6 cells

* * *

experiment: in vitro; conditions: human, plasma, PPB
Metric: fraction unbound at 5 h

                                smiles_data                   metric  observed_result
0  Cc1ccc(S(=O)(=O)Nc2c(C(=O)N[C@H](C)C(C)(C)C)c(C)nn2-c2ccccc2)cc1  fraction unbound at 5 h           0.0081
1  O=c1nc(N2CCOCC2)cc(N(CCO)Cc2cccc3ccccc23)[nH]1  fraction unbound at 5 h            0.139
2  O=C1COc2c(CCNCCN(C(=O)CCNCCc3ccc(Cl)c(Cl)c3)C3CCCCC3)ccc(O)c2N1  fraction unbound at 5 h           0.0313

* * *

experiment: physchem; conditions: octan-1-ol/water, pH 7.4, LogD7.4
Metric: logD

                                   compound  metric  observed_result
0  Cc1ccc2c(c1)c(-c1ccnc3c(C(F)(F)F)cccc13)c(C)n2CC(=O)O    logD             1.27
1  CCn1c(=O)c2c(-c3cc(C#N)cn3C)n(Cc3ccnc4ccc(Cl)cc34)nc2n(CC2CC2)c1=O    logD             4.13
2  C=CCn1c(=O)c2c(-c3cc(C#N)cn3C)n(Cc3ccnc4ccc(Cl)cc34)nc2n(CC2CC2)c1=O    logD             4.27
3  CNC(=O)c1cccc2c1c(Sc1ccc(Cl)cc1)c(C)n2CC(=O)O    logD            -0.89
4  CCOC(=O)Nc1ccc(NCc2ccc(F)cc2)nc1N [FLUPIRTINE]    logD             2.22
5  CC(C)C(NC(=O)Cn1c(-c2ccccc2)ccc(NC(=O)NCc2cccnc2)c1=O)C(=O)C(F)(F)F (stereo unspecified)    logD             2.84

* * *

test: in vitro; conditions: human, plasma, PPB
We label by threshold. Values of fraction unbound at 5 h strictly beneath 0.04 are true. Values of 0.04 and up are false.

>>> df
                                    compound  category
 0  NC(=O)N1c2ccccc2C=Cc2ccccc21 [CARBAMAZEPINE]     false
 1  Cc1ccc(S(=O)(=O)Nc2c(C(=O)N[C@@H](C)C(C)(C)C)c(C)nn2C2CCOCC2)cc1     false
 2  O=C(c1c[nH]c(=O)c2ccccc12)N1CCC(N2CCC(Oc3ccc(Cl)c(Cl)c3)CC2)CC1     false
 3  Cc1cc(Nc2nc(N[C@@H](C)c3ncc(F)cn3)nc(N3CCOCC3)c2F)n[nH]1     false
 4  C[N+](C)(Cc1ccc(NC(=O)c2ccc(Cl)c(Cl)c2)cc1)C1CCOCC1     false
 5       CNC(=O)c1[nH]cnc1C(=O)Nc1ccc(OC)cc1     false
 6  OCc1cc(C(O)CNCCCCCCOCCCCc2ccccc2)ccc1O (stereo unspecified)     false
 7  COc1cc(-n2cnc3cc(-c4ccc(Cl)cc4)sc3c2=O)ccc1OC[C@H](O)C1CC1      true
 8  NC(=O)c1cnc(N[C@H]2CCCNC2)c2cc(-c3ccc(F)cc3)sc12      true
 9  CCS(=O)(=O)c1ccc(-c2cc(C(F)(F)F)ccc2O[C@@H](C)C(=O)O)c(C)c1     false
10  CN(Cc1cccc2ccccc12)c1cc(N2CCOCC2)nc(=O)[nH]1     false
11            Cc1nn(C2CCCCC2)c(N)c1-c1ccccc1     false
12  CNc1nc(C)c(-c2nc(Nc3cccc(N4CCNCC4)c3)ncc2C#N)s1     false
13  Cc1nn(-c2ccc(F)cc2)c(NS(=O)(=O)c2ccc(C#N)cc2)c1C(=O)N[C@@H](C)C(C)(C)C     false
14  O=c1cc(O)oc2c1c(=O)n(-c1ccccc1)c1ccccc21      true
15             COc1ccc(-c2ccc3nc(N)sc3c2)cn1      true

* * *

assay: in vitro; conditions: human, plasma, PPB
We label by threshold. Values of fraction unbound at 5 h strictly beneath 0.1 are Fulfilled. Values of 0.1 and up are Not fulfilled.

                                   compound       category
0  CCN(CCNCCc1ccc(O)c2[nH]c(=O)sc12)C(=O)CCOCCc1ccccc1      Fulfilled
1  CN[C@@H](C)C(=O)N[C@H](C(=O)N[C@H]1CCCN(CCc2ccccc2OC)C1)C(C)(C)C  Not fulfilled
2  CCNC(=O)c1cc2c(-n3ccc(C(F)(F)F)n3)c(-c3cncc(-c4n[nH]c(=O)o4)c3)cnc2[nH]1      Fulfilled
3  CN1C(=N)N[C@](C)(c2cc(-c3cccc(C#N)c3)cs2)CC1=O      Fulfilled
4  CC(C)(C)NC[C@H](O)COc1nsnc1N1CCOCC1 [TIMOLOL]  Not fulfilled
5  Cc1cn([C@H]2CCCN(S(=O)(=O)c3ccc(C#N)c(Oc4cccc(Cl)c4)c3)C2)c(=O)[nH]c1=O      Fulfilled
6  CCN(CC)CCNC(=O)c1c(C)[nH]c(/C=C2\C(=O)Nc3ccc(Cl)cc32)c1C [SU-11652]  Not fulfilled

* * *

assay: physchem; settings: octan-1-ol/water, pH 7.4, LogD7.4
Metric: logD

In [3]: df
Out[3]:
                                smiles_data  metric  observed_result
0       CNC(=O)c1[nH]cnc1C(=O)Nc1ccc(OC)cc1    logD              2.2
1                  NC(=O)c1sc(-c2ccsc2)cc1N    logD             2.23
2  CC(C)c1ccc(NC(=O)NCCCSC[C@H]2O[C@@H](n3cnc4c(N)ncnc43)[C@H](O)[C@@H]2O)cc1    logD              2.5
3  O=C(N[C@@H](Cc1ccc(OCCc2ccc3c(n2)NCCC3)cc1)C(=O)O)c1c(Cl)cccc1Cl    logD             0.33
4  CCS(=O)(=O)c1ccc(-c2cc(C(F)(F)F)ccc2O[C@H](C)C(=O)O)c(C)c1    logD             -0.4

* * *

test: in vitro; conditions: human, microsomes
Parameter: microsomal CLint. Scope: all listed entries.
Metric: microsomal CLint

In [3]: df
Out[3]:
                                   compound  observed_result
0  C[C@H]1CN(Cc2cc(Cl)ccc2OCC(=O)O)CCN1C(=O)Cc1ccccc1    < 3 µL/min/mg
1  CC(=O)Nc1ccc(O)cc1OC[C@@H](O)CN1CCC2(CC1)Cc1cc(F)ccc1O2    < 3 µL/min/mg
2   CCn1c(SCC(=O)Nc2cccc(C)c2)nnc1-c1ccccc1  > 150 µL/min/mg
3  O=C(O)C[C@H](O)C[C@H](O)/C=C/c1c(C2CC2)nc2ccccc2c1-c1ccc(F)cc1    < 3 µL/min/mg
4  O=C(O)COc1ccc(Cl)cc1CN1CCCN(S(=O)(=O)c2ccccc2)CC1    < 3 µL/min/mg
5  CC(C)NCC(O)COc1ccc(CCOCC2CC2)cc1 (stereo unspecified)    < 3 µL/min/mg

* * *

test: in vitro; details: mouse, plasma
Please note: criterion met applies when fraction unbound at 5 h is 0.02 or greater, and criterion not met applies otherwise.

>>> print(df.to_string())
                                   molecule           category
0  COc1cc(-n2cnc3cc(-c4ccc(Cl)cc4)sc3c2=O)ccc1OC[C@H](O)C1CC1  criterion not met
1  Cc1nn(C)c(C)c1-c1ccc(-c2nc3ccncc3c(O)c2C#N)cc1      criterion met
2  Cc1ccc2c(c1)c(-c1ccnc3c(Cl)cccc13)c(C)n2CC(=O)O      criterion met
3  OC1(c2ccc(Cl)cc2)CCN(Cc2c[nH]c3ccccc23)CC1      criterion met
4  CS(=O)(=O)Nc1ccc2[nH]c(Cc3ccc(Oc4ccccc4)cc3)nc2c1  criterion not met
5  CC(C)Cn1cnc2c(N)nc3ccccc3c21 [IMIQUIMOD]  criterion not met
6  CC(C)(F)C[C@H](N[C@@H](c1ccc(-c2ccc(S(C)(=O)=O)cc2)cc1)C(F)(F)F)C(=O)NC1(C#N)CC1 [ODANACATIB]  criterion not met
7  c1ccc([C@H]([C@@H](c2ccccc2)N2CCCCC2)N2CCCCC2)cc1      criterion met
8  C[C@@H](CC(=O)OC(C)(C)C)NC(=O)C1=NOC(C(O)(C(F)(F)F)C(F)(F)F)C1 (stereo not given in full)      criterion met
9  O=c1[nH]c2cc(C(F)(F)F)ccc2n1-c1cc(C(F)(F)F)ccc1O  criterion not met
